Source: ChEMBL document CHEMBL3259687

Kindly state Activity for each of the entries shown.
test system: Mus musculus; assay: Prolongation of bleeding time in mouse at 30 uM/kg, po administered as single dose by tail excision method; format: ADME, organism-based; conditions: in vivo
Write the number in % without appending the unit.

Reported Activity ( CC(C)(C)OC(=O)NCC1CCN(C(=O)[C@@H]2CCC(=O)N2Cc2ccc(C#N)cc2)CC1 ) = 0

Reported Activity ( Cc1ccc(CN2C(=O)SC[C@H]2C(=O)N2CCC[C@@H](CNC(=O)OC(C)(C)C)C2)cc1 ) = 43

Reported Activity ( Cc1ccc(CN2CSC[C@H]2C(=O)N2CCC[C@H](CNC(=O)OC(C)(C)C)C2)cc1 ) = 72

Reported Activity ( Cc1ccc(CN2C(=O)SC[C@H]2C(=O)N2CCC[C@H](CNC(=O)OC(C)(C)C)C2)cc1 ) = 50

Reported Activity ( CC(C)(C)OC(=O)NCC1CCCN(C(=O)[C@@H]2CCC(=O)N2C/C=C/c2ccccc2)C1 (mixture of isomers) ) = 0

Reported Activity ( O=C(NCC1CCN(C(=O)[C@@H]2CCC(=O)N2Cc2ccc(Br)cc2)CC1)OCc1ccccc1 ) = 25

Reported Activity ( Cc1ccc(CN2C(=O)OC[C@H]2C(=O)N2CCC[C@@H](CNC(=O)OC(C)(C)C)C2)cc1 ) = 54

Reported Activity ( Cc1ccc(C(=O)N2CSC[C@H]2C(=O)N2CCC[C@@H](CNC(=O)OC(C)(C)C)C2)cc1 ) = 8

###

Kindly state inhibition (INH) for each of the entries shown.
experiment: Antiplatelet activity in human platelet-rich plasma assessed as inhibition of arachidonic acid-induced platelet aggregation treated for 5 mins prior to arachidonic acid challenge for 5 mins by turbidimetric method; type: functional, cell-free
Write the number in % without appending the unit.

Reported inhibition (INH) ( Cc1ccc(CN2C(=O)SC[C@H]2C(=O)N2CCC[C@H](CNC(=O)OC(C)(C)C)C2)cc1 ) = 8

Reported inhibition (INH) ( Cc1ccc(CN2CSC[C@H]2C(=O)N2CCC[C@H](CNC(=O)OC(C)(C)C)C2)cc1 ) = 93

Reported inhibition (INH) ( Cc1ccc(CN2C(=O)SC[C@H]2C(=O)N2CCC[C@@H](CNC(=O)OC(C)(C)C)C2)cc1 ) = 15

Reported inhibition (INH) ( Cc1ccc(CN2CSC[C@H]2C(=O)N2CCC[C@@H](CNC(=O)OC(C)(C)C)C2)cc1 ) = 25

###

system: Mus musculus; assay: Prolongation of bleeding time in mouse at 30 uM/kg, po administered as single dose by tail excision method; type: ADME, organism-based; details: in vivo
ASSAY READOUT: Activity (%)
Write the number in % without appending the unit.

Reported Activity ( Cc1ccc(CN2C(=O)CC[C@H]2C(=O)N2CCCC(CNC(=O)OC(C)(C)C)C2)cc1 (mixture of isomers) ) = 50

Reported Activity ( CC(C)(C)OC(=O)NCC1CCN(C(=O)[C@@H]2CCC(=O)N2Cc2c(Cl)cccc2Cl)CC1 ) = 50

Reported Activity ( Cc1ccc(CN2CSC[C@H]2C(=O)N2CCC[C@@H](CNC(=O)OC(C)(C)C)C2)cc1 ) = 50

###

system: Mus musculus; assay: Prolongation of bleeding time in mouse at 30 uM/kg, po administered as single dose by tail excision method; format: ADME, organism-based; settings: in vivo
Entry flag: condition met if Activity reaches 50%; condition not met if it does not.

Kindly determine if Activity recorded for CC(C)(C)OC(=O)NCC1CCCN(C(=O)[C@@H]2CCC(=O)N2Cc2ccc(Br)cc2)C1 (mixture of isomers) is above or exactly 50%.
condition met

Kindly determine if Activity recorded for Cc1ccc(CN2C(=O)OC[C@H]2C(=O)N2CCC[C@H](CNC(=O)OC(C)(C)C)C2)cc1 is above or exactly 50%.
condition not met

Kindly determine if Activity recorded for Cc1ccc(S(=O)(=O)NCC2CCCN(C(=O)[C@@H]3CCC(=O)N3Cc3ccccc3)C2)cc1 (mixture of isomers) is above or exactly 50%.
condition not met

Kindly determine if Activity recorded for O=C(CNC(=O)OCc1ccccc1)NCC1CCCN(C(=O)[C@@H]2CCC(=O)N2Cc2ccccc2)C1 (mixture of isomers) is above or exactly 50%.
condition not met

Kindly determine if Activity recorded for CC(C)(C)OC(=O)NCC1CCCN(C(=O)[C@@H]2CCC(=O)N2Cc2ccccc2Cl)C1 (mixture of isomers) is above or exactly 50%.
condition met

Kindly determine if Activity recorded for CC(C)(C)C(=O)NCC1CCCN(C(=O)[C@@H]2CCC(=O)N2Cc2ccccc2)C1 (mixture of isomers) is above or exactly 50%.
condition not met
